Give activity change, negative = inhibition for every item shown.
# Assayed System: 15-hydroxyprostaglandin dehydrogenase [NAD(+)] (Homo sapiens)
# Experiment Summary: qHTS Assay for Inhibitors of HPGD (15-Hydroxyprostaglandin Dehydrogenase); also: % is scaled to controls: 0 for no effect and ±100 for the full control effect
# Recorded Conditions: purified HPGD, NADH fluorescence kinetic, PGE2 substrate; hits give low values
Among all 150,000 compounds or so, about 6,500 (4.3%) were called active. Another 12% or so got no clear call; they are omitted. For the sample, actives were picked, then their nearest neighbours and some compounds at random.
Numbers only, in %.

Compound	activity change, negative = inhibition (%)
Cc1cc(C(=O)Nc2c(C)nn(Cc3ccccc3)c2C)on1	-12.9
Cc1nc2ccccc2n1CC(=O)N/N=C/c1cccs1	-4.95

# map each compound to its activity change, negative = inhibition
1. COC(=O)c1cc2nc(-c3ccccc3)cc(C(F)(F)F)n2n1
2. CCOC(=O)C1=NO[C@@]2(C=C(Br)C(=O)[C@H]3O[C@H]32)C1
3. CC(C)CNC(=O)COC(=O)/C=C/c1ccco1
4. CCOc1ccc(C(=O)NC(C(=O)NCc2ccccn2)C(C)C)cc1 (stereo unspecified)
5. Cc1nnc(SCC(=O)Nn2cnnc2)s1
6. CN(C)C(=O)c1ccc2c(c1)C1C3CCC(C3)C1C(c1ccccc1)N2 (stereo unspecified)

(A)
1: -14.5; 2: -23; 3: -11.3; 4: -8.11; 5: -0.465; 6: -9.73

# map each compound to its activity change, negative = inhibition
1. O=C(Nc1nnc(SCc2ccc(Cl)cc2Cl)s1)C1COc2ccccc2O1 (stereo unspecified)
2. CCC(CC)c1nnc(NC(=O)/C=C/c2ccco2)s1
3. CSCCC(NC(=O)COc1ccccc1)C(=O)Nc1ccc(C)cc1 (stereo unspecified)

(A)
-24
-29.6
-0.719

# map each compound to its activity change, negative = inhibition
1. COc1ccc(NS(=O)(=O)c2ccc(NC(=S)NC(=O)CC(C)C)cc2)cc1
2. CC1CCCC(NC(=O)CSc2nccn2C)C1C (stereo unspecified)
3. Cc1cccc(C)c1NC(=O)C(c1ccccc1)N1CC(=O)Nc2ccccc21 (stereo unspecified)
4. COC(=O)c1onc(-c2c(OC)cc(OC)cc2OC)c1C(=O)OC
5. CCOc1ccc(N2C(=O)CC(N(O)c3ccccc3)C2=O)cc1 (stereo unspecified)
6. Cc1sc2nc(CSCC(=O)Nc3c(Cl)cccc3Cl)[nH]c(=O)c2c1C

(A)
-14.4
-27.8
-5.54
-3.93
-7.04
-14

* * *

# Assayed System: 15-hydroxyprostaglandin dehydrogenase [NAD(+)] (Homo sapiens)
# Experiment Summary: qHTS Assay for Inhibitors of HPGD (15-Hydroxyprostaglandin Dehydrogenase); also: % is scaled to controls: 0 for no effect and ±100 for the full control effect
# Recorded Conditions: purified HPGD, NADH fluorescence kinetic, PGE2 substrate; hits give low values
# Text: Human 15-Hydroxyprostaglandin dehydrogenase (HPGD) catalyzes the inactivation of prostaglandin E2, and plays a major role in cancer biology by antagonizing the oncogenic potential of cyclooxygenase type 2 (COX2). Assays are available, based on absorbance/fluorescence increase of NADH with the substrate 15-OH prostaglandin E2. References 1. […] An increase in the fluorescence intensity due to conversion of NAD+ to NADH was used to measure the enzyme activity. […]
About 6,500 (4.3%) of roughly 150,000 compounds were called active. Another 12% or so got no clear call; they are omitted. The full list was thinned out, with actives kept by preference.
Property Name: activity change, negative = inhibition (%)
One number for each entry, in %.

Below are worked cases with known answers.
Compound	Assayed System	activity change, negative = inhibition (%)
Cc1ccc(Cc2c(C)nc3nc(SCC(=O)NCCN4CCOCC4)nn3c2C)cc1	15-hydroxyprostaglandin dehydrogenase [NAD(+)] (Homo sapiens)	-11.4
CCCN1CNC(=S)N(CCc2ccccc2)C1	15-hydroxyprostaglandin dehydrogenase [NAD(+)] (Homo sapiens)	1.42
O=C(c1cc(-c2ccc(O)cc2)on1)N1CCCc2ccccc21	15-hydroxyprostaglandin dehydrogenase [NAD(+)] (Homo sapiens)	-28
COC(=O)CCNc1ccc2c(c1)OCCO2	15-hydroxyprostaglandin dehydrogenase [NAD(+)] (Homo sapiens)	-9.02
CC(Cc1cccs1)NC(=O)NC1CCCCC1 (centres undefined)	15-hydroxyprostaglandin dehydrogenase [NAD(+)] (Homo sapiens)	-17.9

# map each compound to its activity change, negative = inhibition
1. CC(C)=C(NC(=O)c1ccccc1)C(=O)N/N=C(\C)c1ccccc1O
2. COc1ccc(C(=O)CSc2n[nH]c(N)n2)cc1

(A)
1: -7.72; 2: -10.7

# map each compound to its activity change, negative = inhibition
1. COc1ccc(C2NC(=S)NC3=C2CCc2ccccc23)cc1OC (centres undefined)
2. Cc1nc(SCC(=O)c2ccccc2)c([N+](=O)[O-])[nH]1
3. Cn1cccc1/C=C1\SC(=S)N(NC(=O)c2ccc(Cl)cc2)C1=O
4. CCCCC(O)(CCCC)C(=O)NN(C(=O)CCl)c1ccccc1
5. COC(=O)C/C=C/[C@@H](C)[C@H](NC(=O)OCC(Cl)(Cl)Cl)c1ccccc1
6. Cc1sc2nc(CC(N)=O)[nH]c(=O)c2c1-c1ccccc1
7. Cc1c(Cl)cccc1NC(=O)CC1SC(=NCC2CCCO2)NC1=O (centres undefined)
8. CCC(C)NCCOCCOc1ccc(Br)cc1C (centres undefined)

(A)
1: -17.9; 2: -5.29; 3: -8.93; 4: -6.18; 5: -2.46; 6: 1.92; 7: -12.3; 8: -6.54

# map each compound to its activity change, negative = inhibition
1. COc1ccc(-c2[nH]ncc2/C=N/NC(=O)c2cc(Br)ccc2O)c(OC)c1
2. COCC(C)NC(=O)c1ccc(Cl)c(Cl)c1 (centres undefined)
3. CCN(CC)C(=O)c1sc(NC(=O)c2ccco2)c(C#N)c1C
4. O=C(CSc1nnc2ccccn12)c1ccccc1

(A)
-16.3
-23
-18.8
78.8

* * *

Give activity change, negative = inhibition for every item shown.
# Assayed System: 15-hydroxyprostaglandin dehydrogenase [NAD(+)] (Homo sapiens) (UniProt P15428)
# Sequence (P15428 whole entry, looked up): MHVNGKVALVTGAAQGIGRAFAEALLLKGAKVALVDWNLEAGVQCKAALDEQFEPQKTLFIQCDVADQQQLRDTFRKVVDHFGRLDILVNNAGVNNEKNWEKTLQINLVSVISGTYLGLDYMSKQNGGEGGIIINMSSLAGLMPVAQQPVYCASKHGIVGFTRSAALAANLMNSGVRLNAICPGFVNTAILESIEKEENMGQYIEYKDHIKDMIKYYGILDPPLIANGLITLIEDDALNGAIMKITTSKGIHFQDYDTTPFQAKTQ
# Experiment Summary: qHTS Assay for Inhibitors of HPGD (15-Hydroxyprostaglandin Dehydrogenase); also: % is scaled to controls: 0 for no effect and ±100 for the full control effect
# Recorded Conditions: purified HPGD, NADH fluorescence kinetic, PGE2 substrate; hits give low values
The whole screen tested about 150,000 compounds, of which about 6,500 (4.3%) were called active. Another 12% or so got no clear call; they are omitted. The entries come from a sample that favours actives as a whole.
Answers are plain numbers, in %.

Compound	Unit Text	activity change, negative = inhibition
COc1ccc(OCc2cccc(C(=O)N3CCCC3)c2)cc1	%	-28.1
COc1ccc(C)cc1NC(=O)CSc1ccc(Cl)cc1	%	-13.4
COC(=O)c1cn(-c2ccccc2)nc1-c1cccnc1	%	-1.05
CCOC(=O)c1cnc(SCC(=O)Nc2cccc(OC)c2)nc1N	%	-14.8
CCOc1ccc2cc(C#N)c(SCC(=O)OC)nc2c1	%	-15

# map each compound to its activity change, negative = inhibition
1. O=C(NCCOc1ccccc1Cl)C(=O)Nc1ccccc1
2. O=C1NC(c2ccc(-c3ccccc3[N+](=O)[O-])o2)C(C(=O)c2ccc(Cl)cc2)C(O)(C(F)(F)F)N1 (stereo unspecified)

(A)
-2.3
-3.47

# map each compound to its activity change, negative = inhibition
1. Cc1cc(C)nc(SCc2ccccc2C#N)n1
2. Cc1cc(OCCCC(=O)NCCN2C(=O)S/C(=C\c3cccnc3)C2=O)ccc1Cl
3. Cc1ccc(C(C)NC(=O)Cn2nc(C)c([N+](=O)[O-])c2C)cc1 (stereo unspecified)

(A)
-12.7
-5.63
-5.59

(Q) Respond only with activity change, negative = inhibition recorded for "CCOc1ccc(N2C(=O)/C(=C/c3ccc(C)o3)N(C)C2=S)cc1"
(A) -30

* * *

# Assayed System: 15-hydroxyprostaglandin dehydrogenase [NAD(+)] (Homo sapiens) (UniProt P15428)
# Experiment Summary: qHTS Assay for Inhibitors of HPGD (15-Hydroxyprostaglandin Dehydrogenase); also: % is scaled to controls: 0 for no effect and ±100 for the full control effect
# Recorded Conditions: purified HPGD, NADH fluorescence kinetic, PGE2 substrate; hits give low values
Screen size: about 150,000 compounds; about 6,500 (4.3%) were called active. Another 12% or so got no clear call; they are omitted. This is one part of a sample in which actives are shown more often than they occur.
Property Name: activity change, negative = inhibition (%)
Answers are plain numbers, in %.

Below are worked cases with known answers.
Molecule	Assayed System	Unit Text	activity change, negative = inhibition
Cc1ccc(C(=O)NC2CCN(C(=O)N3CCOCC3)CC2)cc1	15-hydroxyprostaglandin dehydrogenase [NAD(+)] (Homo sapiens) (UniProt P15428)	%	-4.3
COc1cc2c(cc1OC)C(=O)NCC(C)(C)O2	15-hydroxyprostaglandin dehydrogenase [NAD(+)] (Homo sapiens) (UniProt P15428)	%	-19.2
O=C(CS(=O)(=O)Cc1ccccc1)NCC1CCCO1 (configuration not stated)	15-hydroxyprostaglandin dehydrogenase [NAD(+)] (Homo sapiens) (UniProt P15428)	%	-19.1
Cc1ccc(CCCOC(=O)C[N+]2(C)CCCC2)cc1	15-hydroxyprostaglandin dehydrogenase [NAD(+)] (Homo sapiens) (UniProt P15428)	%	-8.3
CCCCC/C=C\C/C=C\C/C=C\CCCCC(=O)NCC(=O)O	15-hydroxyprostaglandin dehydrogenase [NAD(+)] (Homo sapiens) (UniProt P15428)	%	-3.51

# map each molecule to its activity change, negative = inhibition
1. CNC(=O)c1csc(-c2ccccc2)n1
2. O=C(CSc1nnc(-c2cccs2)n1-c1ccccc1)NCc1ccco1
3. O=C(NC1CCCCC1)c1cc([N+](=O)[O-])ccc1N1CCOCC1
4. C=CCn1c(SCC(=O)Nc2nc3ccccc3s2)nnc1-c1ccccc1O
5. N=C1C(=O)OCC1c1ccccc1NC(=O)CN1CCCCC1 (configuration not stated)
6. CC(C)CCNC(=O)c1cccnc1Sc1ccccc1
7. N#Cc1ccsc1NC(=O)CN1CCN(S(=O)(=O)c2cc(Cl)ccc2Cl)CC1

(A)
1. -8.99
2. -2.44
3. -0.536
4. -10.2
5. -11.6
6. -7.91
7. -24.3
